Measured TGI50, listed per entry for reference.
test system: SUN638 (gastric cancer) cell line; assay: Anti-cancer activity in vitro, SUN638 cell line; format: cell-based; details: SUN638 Cell Line
Just the number in µg/mL, nothing appended.

COc1cc2c(cc1OC)C(c1ccc(F)cc1)CN(C(=O)Nc1nc3ccccc3nc1OC)CC2 (centres unmarked)
6.16
COc1cc2c(cc1OC)C(c1ccccc1)CN(C(=O)n1ccnc1)CC2 (centres unmarked)
1.73
COc1ccc2c(c1)C(c1ccccc1)CN(C(=O)n1ccnc1)CC2 (centres unmarked)
7.24

-- ask Look at this compound and give its reported TGI50. COc1cc2c(cc1OC)[C@@H](c1ccccc1)CN(C(=O)n1ccnc1)CC2
-- reply 97.72

-- ask Okay, and COc1cc2c(cc1OC)[C@H](c1ccccc1)CN(C(=O)Nc1nc3ccccc3nc1OC)CC2 ?
-- reply 9.33

-- ask Okay, and Cc1cc(C)cc(N2CCN(C(=O)Nc3nc4ccccc4[n+]([O-])n3)CC2)c1 ?
-- reply 7.07

-- ask Okay, and COc1cc2c(cc1OC)C(c1ccc(Cl)cc1)CN(C(=O)Nc1nc3ccccc3nc1OC)CC2 (centres unmarked) ?
-- reply 6.91

-- ask Okay, and COc1cc2c(cc1OC)[C@@H](c1ccccc1)CN(C(=O)Nc1nc3ccccc3nc1OC)CC2 ?
-- reply 6.76

Data origin, for the record: patent US20020019389A1
